Tested on: MDA-MB-435
ASSAY_PROCEDURE: NCI tumour cell line growth inhibition, 48 h
Active and inactive are the calls of the source. Cut-off read from the data, not from the text of the source: active = GI50 up to about 1.1 µM and inactive = higher.
Classes used: active, inactive

- COMPOUND: "COc1cccc2c(NNc3ccccc3)c3ccc([N+](=O)[O-])cc3nc12"
  GROUP: "inactive"
- COMPOUND: "CCOC(=O)c1sc2nc(SC)nc(Nc3ccc(OC)c(OC)c3)c2c1N"
  GROUP: "inactive"
- COMPOUND: "Nc1ccc2nc3n(c(=O)c2c1)CCCCC3"
  GROUP: "inactive"
- COMPOUND: "Clc1ccc(/C=N/c2ccc(Oc3ccc(Cl)cc3)c(Cl)c2)cc1"
  GROUP: "inactive"
- COMPOUND: "CCN(CC)CCCC(C)Nc1cc(/C=C/c2ccc(Cl)cc2)nc2cc(N(C)C)ccc12 (centres undefined)"
  GROUP: "inactive"
- COMPOUND: "COc1ccc(N[C@H](C[S+]([O-])c2ccc(C)cc2)C(F)(F)F)cc1 (some centres undefined)"
  GROUP: "inactive"
- COMPOUND: "CN1CCc2cc(N)cc3c2C1Cc1ccc(O)c(O)c1-3 (centres undefined)"
  GROUP: "inactive"
- COMPOUND: "O=C(OCc1ccccc1)N1CCN(C(=O)OCc2ccccc2)CCN(C(=O)OCc2ccccc2)CCN(C(=O)OCc2ccccc2)CCN(C(=O)OCc2ccccc2)CC1"
  GROUP: "inactive"
- COMPOUND: "CN(CCCNC(=O)c1cn(C)c2c1ccc1ccccc12)CCCNC(=O)c1cn(C)c2c1ccc1ccccc12"
  GROUP: "inactive"
- COMPOUND: "Clc1cccc(Cl)c1/C=N/C12CC3CC(CC(C3)C1)C2"
  GROUP: "inactive"
- COMPOUND: "COc1ccc(/C=C\\c2cc(OC)c(OC)c(OC)c2)cc1OC(=O)CCC(=O)O"
  GROUP: "active"
- COMPOUND: "CC(=O)OC1CCC2(C)C(=CCC3C2CCC2(C)C3CC3OC4(CCC(C)CN4)C(C)C32)C1 (centres undefined)"
  GROUP: "inactive"
- COMPOUND: "COc1c2c(cc3oc(=O)ccc13)OC(C)(C)C=C2"
  GROUP: "inactive"
- COMPOUND: "COc1cc(/C=c2/c3ccccc3n3c2cc(-c2ccccc2)[n+]3C)cc(OC)c1OC"
  GROUP: "inactive"
- COMPOUND: "COc1ccc2c(c1)C(=O)c1ccccc1C2"
  GROUP: "inactive"
- COMPOUND: "Cc1c(CCCl)c(N=[N+]=[N-])n2c(nc3ccccc32)c1C#N"
  GROUP: "inactive"
- COMPOUND: "ClCCN1CCOC1=C1C=CC=C1"
  GROUP: "inactive"
- COMPOUND: "Cc1ccc(S(=O)(=O)N(CC(O)COc2ccccc2)c2c(F)c(F)cc(F)c2F)cc1 (centres undefined)"
  GROUP: "inactive"
- COMPOUND: "O=C(c1ccccc1)c1ccc(C(c2c(O)c3ccccc3oc2=O)c2c(O)c3ccccc3oc2=O)cc1"
  GROUP: "inactive"
- COMPOUND: "CC(=O)O[C@H]1C(=O)[C@@]2(C)C(C(OC(=O)c3ccccc3)[C@]3(O)CC(OC(=O)C(O)C(NC(=O)c4ccccc4)c4cccc(Cl)c4)C(C)=C1C3(C)C)[C@]1(OC(C)=O)CO[C@@H]1C[C@@H]2O (some centres undefined)"
  GROUP: "inactive"
- COMPOUND: "N[C@H]1CCc2c1nc1c(c2-c2ccccc2)CC[C@@H]1N"
  GROUP: "inactive"
- COMPOUND: "O=C(O)CCc1ccc2c(c1)CC1(Cc3ccccc3C1)C2"
  GROUP: "inactive"
- COMPOUND: "OCC1OC(c2n[nH]c3c(O)ncnc23)C(O)C1O (centres undefined)"
  GROUP: "inactive"
- COMPOUND: "COC1=CC(=O)C2=C(C1=O)[C@H]1CC[C@]3(C)[C@@H](OC(C)=O)CC[C@H]3[C@@H]1CC2"
  GROUP: "inactive"
- COMPOUND: "CC(/C=N/N(C)C1=NCCCCN1)=N/N(C)C1=NCCCCN1"
  GROUP: "inactive"
- COMPOUND: "COC(=O)/C=C1/OC(c2ccc(C)cc2)=C(Cl)C1=O"
  GROUP: "inactive"
- COMPOUND: "C=C(Cl)C(Cl)(CBr)CCC(Br)C(C)(C)Br (centres undefined)"
  GROUP: "inactive"
- COMPOUND: "O=c1c2cc3c(cc2[nH]c2ncccc12)OCO3"
  GROUP: "inactive"
- COMPOUND: "CC(C)(C)c1cc(C2COC(=O)COCCOCC(=O)OCCOCCO2)cc(C(C)(C)C)c1O (centres undefined)"
  GROUP: "inactive"
- COMPOUND: "COc1ccc(/N=C(Nc2ccc(OC)cc2)/C(=N/c2ccc(OC)cc2)Nc2ccc(OC)cc2)cc1"
  GROUP: "inactive"
- COMPOUND: "CCOC(=O)c1ccc(Nc2cnc3cc(C(F)(F)F)ccc3n2)cc1"
  GROUP: "inactive"
- COMPOUND: "O=C([C@H](O)[C@@H](O)c1ccc(Br)cc1)C12CC3CC(CC(C3)C1)C2"
  GROUP: "inactive"
- COMPOUND: "Nc1nc2ncc(SCc3ccc(C(=O)NC(CCC(=O)O)C(=O)O)cc3)cc2c(=O)[nH]1 (centres undefined)"
  GROUP: "inactive"
- COMPOUND: "C[N+](C)(N)CCC[N+](C)(C)N"
  GROUP: "inactive"
- COMPOUND: "Cc1ccc2nc(-n3c(/C=C/c4ccccc4O)nc4ccccc4c3=O)sc2c1"
  GROUP: "inactive"
- COMPOUND: "CC[C@]12C=CCN3CCC4(c5cc(/N=N/c6ccc([N+](=O)[O-])cc6)c(OC)cc5N(C)[C@H]4[C@@](O)(C(=O)OC)[C@@H]1OC(C)=O)[C@@H]32 (some centres undefined)"
  GROUP: "inactive"
- COMPOUND: "O=C(O)/C(Cc1c[nH]nn1)=N\\O"
  GROUP: "inactive"
- COMPOUND: "CC(=O)OCC1=C(C)C[C@H]([C@@H](COC(C)=O)C2CCC3C4C[C@H]5O[C@]56CC=CC(=O)[C@]6(C)C4CC[C@@]32C)OC1=O (some centres undefined)"
  GROUP: "active"
- COMPOUND: "CCC1c2[nH]c3ccccc3c2C[C@H]2C(=O)NC(COC(C)(C)C)C(=O)N12 (some centres undefined)"
  GROUP: "inactive"
